Test system: 317291-083-R-J1-PDC complex spheroid growth;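 further: compound exposure lasted seven days after spheroids formed for three days; 100% = DMSO vehicle control wells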
protocol: Anticancer human tumor 317291-083-R-J1-PDC patient-derived soft tissue sarcoma cell line growth inhibition [Asc]
condition_parameters: second compound 3.16 µM; first compound 0.0316 µM; stronger effect = lower value

{"columns": ["compound", "viability, T/C, %"],
 "data": [
  ["CNC(C)C(=O)NC1CN(S(=O)(=O)c2cccc(S(=O)(=O)N3CCC4CCC(C(=O)NC(c5ccccc5)c5ccccc5)N4C(=O)C(NC(=O)C(C)NC)C3)c2)CCC2CCC(C(=O)NC(c3ccccc3)c3ccccc3)N2C1=O (stereo not drawn) + Cc1c(S(C)(=O)=O)c(-c2cc(F)cc(N3CCN(c4ccc(NS(=O)(=O)c5ccc(NC(CCN6CCC(C(=O)OCCCP(=O)(O)O)CC6)CSc6ccccc6)c(S(=O)(=O)C(F)(F)F)c5)cc4)CC3)c2)c(-c2ccc(Cl)cc2)n1C(C)C", 65.1],
  ["NC1CCC(NC2CC2c2ccccc2)CC1 (stereo not drawn) + Cc1c(S(C)(=O)=O)c(-c2cc(F)cc(N3CCN(c4ccc(NS(=O)(=O)c5ccc(NC(CCN6CCC(C(=O)OCCCP(=O)(O)O)CC6)CSc6ccccc6)c(S(=O)(=O)C(F)(F)F)c5)cc4)CC3)c2)c(-c2ccc(Cl)cc2)n1C(C)C", 87.6],
  ["O=C(c1cc(Cc2n[nH]c(=O)c3ccccc23)ccc1F)N1CCN(C(=O)C2CC2)CC1 + Cc1c(S(C)(=O)=O)c(-c2cc(F)cc(N3CCN(c4ccc(NS(=O)(=O)c5ccc(NC(CCN6CCC(C(=O)OCCCP(=O)(O)O)CC6)CSc6ccccc6)c(S(=O)(=O)C(F)(F)F)c5)cc4)CC3)c2)c(-c2ccc(Cl)cc2)n1C(C)C", 75.7]
]}
